Settings: in methyl acetate, 308.15 K
readout_name: solubility (mole fraction)

>>> meas_value("CCC[C@@H]1C[C@@H](C(=O)N[C@@H]([C@H]2O[C@H](SC)[C@H](O)[C@H]3OC(C)(C)O[C@H]32)[C@H](C)Cl)N(C)C1")
0.0355

###

Settings: in isobutanol, 303.15 K
readout_name: solubility (mole fraction)

>>> meas_value("CCC[C@@H]1C[C@@H](C(=O)N[C@@H]([C@H]2O[C@H](SC)[C@H](O)[C@H]3OC(C)(C)O[C@H]32)[C@H](C)Cl)N(C)C1")
0.0491

###

Conditions: in acetonitrile, 303.15 K
readout_name: solubility (mole fraction)

>>> meas_value("CCC[C@@H]1C[C@@H](C(=O)N[C@@H]([C@H]2O[C@H](SC)[C@H](O)[C@H]3OC(C)(C)O[C@H]32)[C@H](C)Cl)N(C)C1")
0.0123

###

Conditions: in ethanol, 273.15 K
readout_name: solubility (mole fraction)

>>> meas_value("CCC[C@@H]1C[C@@H](C(=O)N[C@@H]([C@H]2O[C@H](SC)[C@H](O)[C@H]3OC(C)(C)O[C@H]32)[C@H](C)Cl)N(C)C1")
0.0146

###

Details: in isobutanol, 313.15 K
readout_name: solubility (mole fraction)

>>> meas_value("CCC[C@@H]1C[C@@H](C(=O)N[C@@H]([C@H]2O[C@H](SC)[C@H](O)[C@H]3OC(C)(C)O[C@H]32)[C@H](C)Cl)N(C)C1")
0.0696

###

Conditions: in ethyl acetate, 293.15 K
readout_name: solubility (mole fraction)

>>> meas_value("CCC[C@@H]1C[C@@H](C(=O)N[C@@H]([C@H]2O[C@H](SC)[C@H](O)[C@H]3OC(C)(C)O[C@H]32)[C@H](C)Cl)N(C)C1")
0.0175

###

Conditions: in n-propyl acetate, 313.15 K
readout_name: solubility (mole fraction)

>>> meas_value("CCC[C@@H]1C[C@@H](C(=O)N[C@@H]([C@H]2O[C@H](SC)[C@H](O)[C@H]3OC(C)(C)O[C@H]32)[C@H](C)Cl)N(C)C1")
0.0347

###

Details: in acetonitrile, 313.15 K
readout_name: solubility (mole fraction)

>>> meas_value("CCC[C@@H]1C[C@@H](C(=O)N[C@@H]([C@H]2O[C@H](SC)[C@H](O)[C@H]3OC(C)(C)O[C@H]32)[C@H](C)Cl)N(C)C1")
0.0189

###

Settings: in methyl acetate, 283.15 K
readout_name: solubility (mole fraction)

>>> meas_value("CCC[C@@H]1C[C@@H](C(=O)N[C@@H]([C@H]2O[C@H](SC)[C@H](O)[C@H]3OC(C)(C)O[C@H]32)[C@H](C)Cl)N(C)C1")
0.0132

###

Settings: in sec-butanol, 298.15 K
readout_name: solubility (mole fraction)

>>> meas_value("CCC[C@@H]1C[C@@H](C(=O)N[C@@H]([C@H]2O[C@H](SC)[C@H](O)[C@H]3OC(C)(C)O[C@H]32)[C@H](C)Cl)N(C)C1")
0.0597

###

Details: in n-propyl acetate, 273.15 K
readout_name: solubility (mole fraction)

>>> meas_value("CCC[C@@H]1C[C@@H](C(=O)N[C@@H]([C@H]2O[C@H](SC)[C@H](O)[C@H]3OC(C)(C)O[C@H]32)[C@H](C)Cl)N(C)C1")
0.0065
